# target: T1, soluble human insulin receptor-immunoglobulin heavy chain chimera (sIR-Fc; Bass et al., 1996) (human, UniProt P06213-2 28-944)
# T1 construct: extracellular domain; also called soluble IR (Bass construct); Eu3+-sIR-Fc; not shown: immunoglobulin heavy chain constant domains per Bass et al., 1996
# T1 sequence (P06213 other isoform, or with tags, fused parts or gaps mutant): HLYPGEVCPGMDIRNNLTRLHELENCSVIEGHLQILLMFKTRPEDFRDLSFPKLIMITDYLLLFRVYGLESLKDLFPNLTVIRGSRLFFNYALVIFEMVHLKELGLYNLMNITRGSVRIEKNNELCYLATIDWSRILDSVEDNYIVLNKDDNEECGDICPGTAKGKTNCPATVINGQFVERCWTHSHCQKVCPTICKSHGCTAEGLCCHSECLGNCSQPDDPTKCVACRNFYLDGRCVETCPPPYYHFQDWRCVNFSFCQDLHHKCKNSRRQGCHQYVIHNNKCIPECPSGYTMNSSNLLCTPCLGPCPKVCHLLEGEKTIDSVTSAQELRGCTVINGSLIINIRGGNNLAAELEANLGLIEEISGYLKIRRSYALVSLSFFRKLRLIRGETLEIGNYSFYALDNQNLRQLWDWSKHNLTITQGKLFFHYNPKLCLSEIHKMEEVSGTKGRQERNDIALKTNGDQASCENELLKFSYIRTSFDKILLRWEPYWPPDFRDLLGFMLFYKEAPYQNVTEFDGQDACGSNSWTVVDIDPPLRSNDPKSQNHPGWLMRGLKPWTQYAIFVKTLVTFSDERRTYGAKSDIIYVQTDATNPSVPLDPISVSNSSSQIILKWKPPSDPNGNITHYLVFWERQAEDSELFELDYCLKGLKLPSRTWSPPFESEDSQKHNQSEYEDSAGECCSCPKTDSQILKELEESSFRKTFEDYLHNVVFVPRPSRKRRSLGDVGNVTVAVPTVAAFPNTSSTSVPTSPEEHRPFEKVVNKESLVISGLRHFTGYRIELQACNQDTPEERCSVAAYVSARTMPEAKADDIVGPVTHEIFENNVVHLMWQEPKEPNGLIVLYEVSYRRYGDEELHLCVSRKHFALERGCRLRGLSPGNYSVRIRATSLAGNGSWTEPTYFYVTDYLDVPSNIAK
# measurement.description: phage ELISA
endpoint: IR/IGF-1R ratio comparison

>  <binder>
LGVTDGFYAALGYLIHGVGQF [20E2B-3-D11-IGFR]

>  <endpoint>
IR/IGF-1R ratio comparison

>  <reported.result>
0.1

$$$$

[a] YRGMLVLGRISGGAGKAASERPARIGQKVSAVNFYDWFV [A6L-0-H3-IR]
[b] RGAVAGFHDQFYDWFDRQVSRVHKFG [H2CA-4-H9-IGFR]
Parameter check: reported IR/IGF-1R ratio comparison is higher for which label, a or b ? The response must carry the label of the picked entry. b
(b: 0.3, a: 0.1)
